Would you mind telling me the reported abundance fitness of each entry?
B1: Peroxisome proliferator-activated receptor delta, residues 71 to 145; numbered along this chain, Q03181 (parent)
chain: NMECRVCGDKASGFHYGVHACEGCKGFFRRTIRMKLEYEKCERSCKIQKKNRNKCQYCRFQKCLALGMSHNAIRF

Variants of: B1
Assay: abundance fitness (aPCA) (normalised: wild type 0, dead -1); higher = more abundant; growth selection in yeast, the domain comes from the species named
Details: Homo sapiens
Write the value as a bare number.

Form field: reported abundance fitness of NMECRVCGDKASGFHYGVHACEGCKGFFRRTIRMKLEYEKCERSCKIQKKNRNKCQYCRFQKCLALGMSHNAISF [R74S]
0.093

Form field: reported abundance fitness of NMECRVCGDKASGFHYGVHMCEGCKGFFRRTIRMKLEYEKCERSCKIQKKNRNKCQYCRFQKCLALGMSHNAIRF [A20M]
-0.456

Form field: reported abundance fitness of NMECRVCGDKASGFHYGVHACEGCKGFFRRTIRMKLEYEKCERSCKIQKKNRNKCQYFRFQKCLALGMSHNAIRF [C58F]
-1

Form field: reported abundance fitness of NMECRVCGDKASGFHYGVHACEGCKGFFRRTIRHKLEYEKCERSCKIQKKNRNKCQYCRFQKCLALGMSHNAIRF [M34H]
0.047

Form field: reported abundance fitness of NMECRVCGDKASGFHYGVHCCEGCKGFFRRTIRMKLEYEKCERSCKIQKKNRNKCQYCRFQKCLALGMSHNAIRF [A20C]
0.139

Form field: reported abundance fitness of NMECRVCGDKASGFHYGVHAGEGCKGFFRRTIRMKLEYEKCERSCKIQKKNRNKCQYCRFQKCLALGMSHNAIRF [C21G]
-0.633

Form field: reported abundance fitness of NMECRVCGDKASGFHYGVHACEGCKGFFRRTIRMKLEYEKCERSCKIQKKNRNKCQYCRFQKCLALGMSHNAIVF [R74V]
-0.013

Form field: reported abundance fitness of NMECRVCGDKASGFHYGVHACEGCKGFFRRTIRMKLEYEKCERSCKIQKKNRNKCQYCRFQKCLALGMSTNAIRF [H70T]
0.157

Form field: reported abundance fitness of NMECRVCGDKASGFHYGVHACEGCKGFFRRTIRMKLEYEKCERSCKIQKKNRNKCQYCRFQKCLAEGMSHNAIRF [L66E]
0.067

Form field: reported abundance fitness of NPECRVCGDKASGFHYGVHACEGCKGFFRRTIRMKLEYEKCERSCKIQKKNRNKCQYCRFQKCLALGMSHNAIRF [M2P]
-0.58

Form field: reported abundance fitness of NMECRVCGDKASGFHYGVHACEGCKGFFRRTIRMKLEYEKCERSCKIQKKNRNKCQYCRFQKCLYLGMSHNAIRF [A65Y]
-0.301

Form field: reported abundance fitness of NMECRVCGDKASGFHYGVHACEGCKGFFRRTIRMKLEYEKCERSCKIQKKNRNKCQYCRFQKCLALGNSHNAIRF [M68N]
-0.81

Form field: reported abundance fitness of NMECRVCGDKASGFHYGVHACEGCKEFFRRTIRMKLEYEKCERSCKIQKKNRNKCQYCRFQKCLALGMSHNAIRF [G26E]
0.127

Form field: reported abundance fitness of NMECRVCGDKASGFHYGVHACEGCKGFFRRTIRMKLEYEKCERSCKIQKKNRNKCQYCDFQKCLALGMSHNAIRF [R59D]
-0.361

Form field: reported abundance fitness of NMECRVCGDKASGFHYGVHACEGCKGFFRRDIRMKLEYEKCERSCKIQKKNRNKCQYCRFQKCLALGMSHNAIRF [T31D]
-0.663

Form field: reported abundance fitness of NMECRVCGDKASGFHYSVHACEGCKGFFRRTIRMKLEYEKCERSCKIQKKNRNKCQYCRFQKCLALGMSHNAIRF [G17S]
-0.448

Form field: reported abundance fitness of NMECRVCGDKASGFHYGVHACEGCKGFFRRTIHMKLEYEKCERSCKIQKKNRNKCQYCRFQKCLALGMSHNAIRF [R33H]
-0.091

Form field: reported abundance fitness of NMECRVCGDKASGFHYGVHACEGCKGFFRRTIRMKLEYEKCERSCKIQKKNRNKCQDCRFQKCLALGMSHNAIRF [Y57D]
-0.335

Form field: reported abundance fitness of NMECRVCGDKASGFHYGVWACEGCKGFFRRTIRMKLEYEKCERSCKIQKKNRNKCQYCRFQKCLALGMSHNAIRF [H19W]
-0.001

Form field: reported abundance fitness of NMECRVCGDKASGFHYGVHACEGCKGFFRRTIRMKLEYEKCERSCKIQKKNRNKCQYCRFQKCLILGMSHNAIRF [A65I]
-0.162

Form field: reported abundance fitness of NMECRVCGDKASGFHYGVHACEGCKGFFRMTIRMKLEYEKCERSCKIQKKNRNKCQYCRFQKCLALGMSHNAIRF [R30M]
-0.176

Form field: reported abundance fitness of NMECRVCGDKASGFHYGVHACEGCKGFFRYTIRMKLEYEKCERSCKIQKKNRNKCQYCRFQKCLALGMSHNAIRF [R30Y]
-0.056
